Tested on: Staphylococcus aureus
Experiment: Antibacterial activity against methicillin resistant Staphylococcus aureus M22 incubated for 16 to 18 hrs by broth dilution method
Format: functional
Conditions: time 16-18 hrs
Listing of recorded log10(MIC) by entry.
The common logarithm of MIC in µg/mL is what is listed.

INSERT INTO measurements (smiles, metric, measured_number) VALUES
  ('C=CCc1cc(-c2ccc(OCCC[N+](C)(C)CC(=O)NCCCC)c(CC=C)c2)c2oc(-c3ccccc3Cl)nc2c1.[Br-]', 'log10(MIC)', 1.51),
  ('C=CCc1cc(-c2ccc(OCCC[N+](C)(C)CC(=O)NCCCC)c(CC=C)c2)c2oc(-c3ccc(C(F)(F)F)cc3)nc2c1.[Br-]', 'log10(MIC)', 1.51),
  ('C=CCc1cc(-c2ccc(OCCC[N+](C)(C)CC(=O)NCCCC)c(CC=C)c2)c2oc(-c3ccc(F)c(Br)c3)nc2c1.[Br-]', 'log10(MIC)', 1.51);

Read the entry C=CCc1cc(-c2ccc(OCCC[N+](C)(C)CC(=O)NCCCC)c(CC=C)c2)c2oc(-c3cccc(OC)c3)nc2c1.[Br-] and write its reported log10(MIC).
1.20

###

System: Staphylococcus aureus
Test: Antibacterial activity against Staphylococcus aureus ATCC 29213 incubated for 16 to 18 hrs by broth dilution method
Format: functional
Conditions: time 16-18 hrs
metric: log10(MIC) (log10 of the value in µg/mL)
The common logarithm of MIC in µg/mL is what is listed.

Read the entry C=CCc1cc(-c2ccc(OCCC[N+](C)(C)CC(=O)NCCCC)c(CC=C)c2)c2oc(-c3ccccc3F)nc2c1.[Br-] and write its reported log10(MIC).
0.60

Read the entry C=CCc1cc(-c2ccc(OCCC[N+](C)(C)CC(=O)NCCCC)c(CC=C)c2)c2oc(-c3ccc(Cl)c(F)c3)nc2c1.[Br-] and write its reported log10(MIC).
1.81

Read the entry C=CCc1cc(-c2ccc(OCCC[N+](C)(C)CC(=O)NCCCC)c(CC=C)c2)c2oc(-c3ccc(Cl)cc3)nc2c1.[Br-] and write its reported log10(MIC).
1.20

###

Test system: Staphylococcus aureus
Test: Antibacterial activity against Staphylococcus aureus ATCC 29213 incubated for 16 to 18 hrs by broth dilution method
Format: functional
Conditions: time 16-18 hrs
metric: log10(MIC) (log10 of the value in µg/mL)
The common logarithm of MIC in µg/mL is what is listed.

Read the entry C=CCc1cc(-c2ccc(OCCC[N+](C)(C)CC(=O)NCCCC)c(CC=C)c2)c2oc(-c3c(Cl)cccc3Cl)nc2c1.[Br-] and write its reported log10(MIC).
0.30

Read the entry C=CCc1cc(-c2ccc(OCCC[N+](C)(C)CC(=O)NCCCC)c(CC=C)c2)c2oc(-c3cc(Cl)cc(Cl)c3)nc2c1.[Br-] and write its reported log10(MIC).
2.11

Read the entry C=CCc1cc(-c2ccc(OCCC[N+](C)(C)CC(=O)NCCCC)c(CC=C)c2)c2oc(-c3cccc(OC)c3)nc2c1.[Br-] and write its reported log10(MIC).
1.51

Read the entry C=CCc1ccc(O)c(-c2ccc(O)c(CC=C)c2)c1 and write its reported log10(MIC).
1.81

###

Test system: Staphylococcus aureus
Assay: Antibacterial activity against methicillin resistant Staphylococcus aureus M11 incubated for 16 to 18 hrs by broth dilution method
Format: functional
Settings: time 16-18 hrs
Listing of recorded log10 of MIC by entry.
The common logarithm of MIC in µg/mL is what is listed.

INSERT INTO assay_data (compound, system_tested, measured_number) VALUES
  ('C=CCc1cc(-c2ccc(OCCC[N+](C)(C)CC(=O)NCCCC)c(CC=C)c2)c2oc(-c3ccc(Cl)c(F)c3)nc2c1.[Br-]', 'Staphylococcus aureus', 0.90),
  ('C=CCc1cc(-c2ccc(OCCC[N+](C)(C)CC(=O)NCCCC)c(CC=C)c2)c2oc(-c3ccc(Br)cc3Br)nc2c1.[Br-]', 'Staphylococcus aureus', 1.51),
  ('C=CCc1cc(-c2ccc(OCCC[N+](C)(C)CC(=O)NCCCC)c(CC=C)c2)c2oc(-c3ccc(C(F)(F)F)cc3)nc2c1.[Br-]', 'Staphylococcus aureus', 0.90),
  ('C=CCc1cc(-c2ccc(OCCC[N+](C)(C)CC(=O)NCCCC)c(CC=C)c2)c2oc(-c3cc(F)c(F)c(F)c3)nc2c1.[Br-]', 'Staphylococcus aureus', 1.51),
  ('C=CCc1cc(-c2ccc(OCCC[N+](C)(C)CC(=O)NCCCC)c(CC=C)c2)c2oc(-c3ccccc3)nc2c1.[Br-]', 'Staphylococcus aureus', 0.30),
  ('C=CCc1cc(-c2ccc(OCCC[N+](C)(C)CC(=O)NCCCC)c(CC=C)c2)c2oc(-c3ccc(F)cc3Cl)nc2c1.[Br-]', 'Staphylococcus aureus', 0.60);

Read the entry C=CCc1ccc(O)c(-c2ccc(O)c(CC=C)c2)c1 [HONOKIOL] and write its reported log10 of MIC.
1.20

Read the entry C=CCc1cc(-c2ccc(OCCC[N+](C)(C)CC(=O)NCCCC)c(CC=C)c2)c2oc(-c3ccc(F)c(F)c3)nc2c1.[Br-] and write its reported log10 of MIC.
0.90

Read the entry C=CCc1cc(-c2ccc(OCCC[N+](C)(C)CC(=O)NCCCC)c(CC=C)c2)c2oc(-c3cc(Br)cc(Br)c3)nc2c1.[Br-] and write its reported log10 of MIC.
2.11

Read the entry C=CCc1cc(-c2ccc(OCCC[N+](C)(C)CC(=O)NCCCC)c(CC=C)c2)c2oc(-c3ccc(F)c(Br)c3)nc2c1.[Br-] and write its reported log10 of MIC.
0.90

Read the entry C=CCc1cc(-c2ccc(OCCC[N+](C)(C)CC(=O)NCCCC)c(CC=C)c2)c2oc(-c3cc(Br)ccc3F)nc2c1.[Br-] and write its reported log10 of MIC.
0.90

Read the entry C=CCc1cc(-c2ccc(OCCC[N+](C)(C)CC(=O)NCCCC)c(CC=C)c2)c2oc(-c3cccc(OC)c3)nc2c1.[Br-] and write its reported log10 of MIC.
0.90

Read the entry C=CCc1cc(-c2ccc(OCCC[N+](C)(C)CC(=O)NCCCC)c(CC=C)c2)c2oc(-c3ccc(F)c(Cl)c3)nc2c1.[Br-] and write its reported log10 of MIC.
0.90

Read the entry C=CCc1cc(-c2ccc(OCCC[N+](C)(C)CC(=O)NCCCC)c(CC=C)c2)c2oc(-c3ccc(Br)cc3)nc2c1.[Br-] and write its reported log10 of MIC.
0.90

Read the entry C=CCc1cc(-c2ccc(OCCC[N+](C)(C)CC(=O)NCCCC)c(CC=C)c2)c2oc(-c3ccccc3Br)nc2c1.[Br-] and write its reported log10 of MIC.
0.60

Data provenance: ChEMBL document CHEMBL5608246
